Data credit: PubChem BioAssay (NCI)

Test system: UACC-257 melanoma
Assay: NCI tumour cell line growth inhibition, 48 h
test.readout: TGI (µM)
Give the number; µM is assumed, so skip it.

For orientation, consider the following solved cases.
record.smiles	TGI [µM]
CC(=O)O[C@H]1CC[C@@]2(C)C(=CC[C@H]3[C@@H]4CC[C@H](c5cc(C(F)(F)F)n(C(C)=O)n5)[C@@]4(C)CC[C@@H]32)C1	13.9
COC(=O)CCc1c[nH]c2ccc(N(CCCl)CCCl)cc12	34.3
CC(C)(C)C(=O)c1c(C(F)(F)F)n([O-])c2ccccc2[n+]1=O	5.57

query: Consider the compound COc1ccc2nc3c([N+](=O)[O-])ccc4c3c(c2c1)NCCN4CCO and give its measured TGI.
result: 1.5

###

Listed here are molecules together with their documented TGI.
System: NCI-H522 lung
Assay: NCI tumour cell line growth inhibition, 48 h

molecule	test.readout	observed.value
CC(=O)O[C@H]1CC[C@@]2(C)C(=CC[C@H]3[C@@H]4CC[C@H](c5cc(C(F)(F)F)n(C(C)=O)n5)[C@@]4(C)CC[C@@H]32)C1	TGI	> 38.5 µM

query: Consider the molecule CCCSc1ccc2[nH]c(N3C(=O)/C(=C/c4ccco4)N=C3c3ccccc3)cc2c1 and give its measured TGI.
result: 37.8 µM

query: Quick one: FC(F)(F)c1nc2nc(Cl)c(Cl)nc2n1CCCN1CCOCC1
result: > 100 µM

query: Quick one: O=C(NCCC1([N+](=O)[O-])CCN(C(=O)c2ccccc2)CC1)c1ccccc1
result: > 100 µM

query: Quick one: COc1cc(-c2cc3ncccc3c3nc(N)c4cccnc4c23)cc(OC)c1OC
result: 12 µM

query: Quick one: COC(=O)C1C/C(=C/N(C)C)C(=S)N1 (stereo not given)
result: > 100 µM

query: Quick one: Fc1ccc2[nH]cc(-c3nonc3-c3c[nH]c4ccc(Br)cc34)c2c1
result: 4.47 µM

query: Quick one: OCc1ccc(-c2ccc(-c3ccc(CO)o3)[se]2)o1
result: > 100 µM

query: Quick one: COc1cc2c(cc1OC)C(C(CO)CO)N(CC(O)CCl)CC2 (stereo not given)
result: > 100 µM

query: Quick one: Cn1c(=O)c(C(=O)Nc2nc(C34CC5CC(CC(C5)C3)C4)cs2)c(O)c2ccccc21
result: > 100 µM

query: Quick one: O=C(/N=C/c1c(O)c2ccccc2oc1=O)Nc1ccccc1
result: > 100 µM

query: Quick one: CCN(CC)CC1CCCCN1CC(=O)N1c2ccccc2NC(=O)CC1C (stereo not given)
result: > 100 µM

query: Quick one: CC1=Nc2nc(Cl)cn2C(=O)C1(Cl)Cl
result: > 10 µM

query: Quick one: Cn1cc(C2=C(c3cn(CCCCN)c4ccccc34)C(=O)NC2=O)c2ccccc21
result: > 25 µM

query: Quick one: Nc1nc(SCc2ccc([N+](=O)[O-])cc2)nc2c1ncn2C1OC(COP(=O)(O)O)C(O)C1O (stereo not given)
result: > 100 µM

query: Quick one: CN[C@H]1C=C[C@@H]2/C=C(C)/C=C/[C@@H](C)[C@H]([C@H](C)[C@H](O)[C@@H](C)NC(C)=O)OC(=O)/C=C/C=C(C)\C=C\[C@]2(C)C1
result: 13.1 µM

query: Quick one: CC[N+](CC)=c1sc2c(s1)C(c1ccc(Cl)cc1)Oc1ccc(Cl)cc1-2 (stereo not given)
result: 2.89 µM

query: Quick one: COc1cc(/C=C2\C(=O)Nc3cc(C)c(O)cc32)cc(OC)c1OC
result: 12.1 µM

query: Quick one: CCN(Cc1cccc(F)c1)c1ccc(CO)c(Cl)c1
result: 58.6 µM

query: Quick one: Nn1c(COc2cccc(OCc3n[nH]c(=S)n3N)c2)n[nH]c1=S
result: > 100 µM

###

Listed here are compounds together with their documented TGI.
Tested on: OVCAR-4 ovarian
Experiment: NCI tumour cell line growth inhibition, 48 h

For orientation, consider the following solved cases.
compound	system.name	observed.value
O=C1NC(SSC2=NNC3(C(=O)N2)c2ccccc2-c2ccccc23)=NNC12c1ccccc1-c1ccccc12	OVCAR-4 ovarian	> 10 µM
C[C@]12CCC(=O)C=C1CC[C@@H]1[C@@H]2[C@@H](O)C[C@@]2(C)[C@H]1CC[C@]2(O)C(=O)COC(=O)COCC(=O)O	OVCAR-4 ovarian	> 100 µM
CN1CCCC2(CCCc3ccccc32)C1 (stereo not given)	OVCAR-4 ovarian	> 100 µM
O=C1CCC2(CC1CC(Sc1ccccc1)Sc1ccccc1)OCCO2 (stereo not given)	OVCAR-4 ovarian	> 100 µM
CC(C)(C)C(=O)c1c(C(F)(F)F)n([O-])c2ccccc2[n+]1=O	OVCAR-4 ovarian	2.43 µM
Fc1ccc2[nH]cc(-c3nonc3-c3c[nH]c4ccc(Br)cc34)c2c1	OVCAR-4 ovarian	18.5 µM
Clc1nc(Cl)c2ncn(Cc3cccc(Cn4cnc5c(Cl)nc(Cl)nc54)c3)c2n1	OVCAR-4 ovarian	13.2 µM
C[N-]c1nnnn1C.[Au+].c1ccc([PH+](c2ccccc2)c2ccccc2)cc1	OVCAR-4 ovarian	12.9 µM
O=C(O)c1cc2ccccc2c(N=Nc2ccc(S(=O)(=O)Nc3nccs3)cc2)c1O	OVCAR-4 ovarian	> 100 µM

Please examine the following record next.
query: Reported TGI for OVCAR-4 ovarian, given O=C(NCCC1([N+](=O)[O-])CCN(C(=O)c2ccccc2)CC1)c1ccccc1 ?
result: > 100 µM

###

Listed here are molecules together with their documented TGI.
System: LOX IMVI melanoma
Assay: NCI tumour cell line growth inhibition, 48 h
Where a SMILES comes first, the peptide text is derived from it. The star is where a group is joined. Boc = CC(C)(C)OC(=O)*

For orientation, consider the following solved cases.
molecule	system.name	TGI
[N-]=[N+]=C1N=CN=C1c1ncn[nH]1	LOX IMVI melanoma	40 µM
Cc1ccc(-c2csc(/N=C3\C(=O)Nc4ccccc43)n2)cc1	LOX IMVI melanoma	2.8 µM
C=C(c1ccc2nc(NC(=O)OC)[nH]c2c1)c1cccs1	LOX IMVI melanoma	> 52.6 µM

query: Consider the molecule Cc1ccc(SC(CCC(Sc2ccc(C)cc2)Sc2ccc(C)cc2)Sc2ccc(C)cc2)cc1 and give its measured TGI.
result: > 100 µM

query: Quick one: C=C(COC(C)=O)CC(OC(C)=O)c1ccccc1 (centres undefined)
result: > 100 µM

query: Quick one: COc1ccc2nc3ccc(OC)cc3c(SCCO)c2c1
result: > 63 µM

query: Quick one: CCOC(=O)C1(C/C=C(/C)Cl)CCCC1=O (centres undefined)
result: > 100 µM

query: Quick one: CC(=O)OCCOCn1c2c(c(=S)[nH]c1=O)CCC2
result: > 100 µM

query: Quick one: COC(=O)C(Cc1c[nH]c2ccccc12)NC(=O)C(Cc1c[nH]c2ccccc12)NC(=O)C(Cc1c[nH]c2ccccc12)NC(=O)C(Cc1c[nH]c2ccccc12)NC(=O)C(Cc1c[nH]c2ccccc12)NC(=O)C(Cc1c[nH]c2ccccc12)NC(=O)OC(C)(C)C (centres undefined) (Boc-WWWWWW-OMe; configuration not given here)
result: > 100 µM

###

Tested on: SNB-19 CNS
Experiment: NCI tumour cell line growth inhibition, 48 h
test.readout: TGI

query: Consider the molecule CC(C)OP(=O)(OC(C)C)/C(I)=N/Nc1ccc([N+](=O)[O-])cc1 and give its measured TGI.
result: > 100 µM

query: Quick one: CC(O)c1cc2c(s1)C(=O)c1sccc1C2=O (stereo not given)
result: 0.292 µM

query: Quick one: O=C(CC(c1ccccc1)c1c(O)c2ccccc2oc1=O)c1ccccc1 (stereo not given)
result: > 100 µM

query: Quick one: O=C(/C=C/c1ccc(O)c(O)c1)OCCCc1ccccc1
result: 33.6 µM

query: Quick one: CN(C)CCNC(=O)c1cccc2c(NCCN(C)C)c3ccccc3nc12
result: 26.3 µM

query: Quick one: C[C@H](CCC(=O)NCCS(=O)(=O)O)[C@H]1CC[C@H]2[C@@H]3CC[C@@H]4C[C@H](O)CC[C@]4(C)[C@H]3CC[C@]12C
result: > 100 µM

query: Quick one: CCCN1C(=O)CC(C)N(Cc2ccccc2Cl)C1=S (stereo not given)
result: > 100 µM

query: Quick one: COC(=O)[C@@H](C)C[C@H](Cc1ccccc1)NC(=O)c1csc(CC[C@H](C(C)C)N(C)C(=O)[C@@H](NC(=O)[C@H]2CCCCN2C)C(C)C)n1
result: > 33.3 µM

query: Quick one: COc1ccc(-c2cc(=O)c3ccc(C)nc3[nH]2)cc1
result: > 100 µM

query: Quick one: CCCN(CCCC(NC(C)=O)C(=O)NCc1ccccc1)C(=O)N(CCCl)N=O (stereo not given)
result: > 84.9 µM

query: Quick one: CC(C)CC(NC(=O)c1cccc(O)c1O)C(=O)NCc1cc(CNC(=O)C(CC(C)C)NC(=O)c2cccc(O)c2O)cc(CNC(=O)C(CC(C)C)NC(=O)c2cccc(O)c2O)c1 (stereo not given)
result: 47.3 µM

query: Quick one: Cn1c(=O)c(C(=O)Nc2nc(C34CC5CC(CC(C5)C3)C4)cs2)c(O)c2ccccc21
result: > 100 µM

query: Quick one: COC(=O)CCC(=O)NC1=C(NCc2ccccc2)C(=O)c2ccccc2C1=O
result: > 100 µM

query: Quick one: Cc1nc(C)c(C(=O)NNC(N)=S)cc1C(=O)NNC(N)=S
result: > 100 µM

query: Quick one: O=C1Nc2ccccc2C12CCNC2Cc1ccccc1 (stereo not given)
result: > 100 µM
